biological target: MNK2a (pre-activated GST-MNK2a) (Homo sapiens (Human)); experiment: MNK2a in vitro kinase assay (assay 1), ADP-Glo; format: biochemical; settings: read-out: Mnk2 IC50
property: IC50 (nM)
Please state the figure in nM; there is no need to write the unit.

Would you please look over these solved cases?
compound	reported
COc1c(N=S2(=O)CCC2)cc2ncnc(Nc3cccnc3O[C@@H]3CO[C@@H]4CCO[C@@H]43)c2c1C	1.9
COc1c(N=S(C)(=O)CCO)cc2ncnc(Nc3ccc(F)cc3O[C@@H]3CO[C@@H]4CCO[C@@H]43)c2c1C (stereo partly shown)	2
COc1c(N=S2(=O)CCC2)cc2ncnc(Nc3ccc(F)cc3O[C@H]3CCOC3)c2c1C	1.1

We now examine a further compound.
Given the compound COc1c(N=S2(=O)CCC2)cc2ncnc(Nc3ccc(F)cc3O[C@@H]3CO[C@H]4[C@@H]3OC[C@H]4OC)c2c1C , what is its reported IC50?
1.6

---

biological target: MNK1a (pre-activated GST-MNK1a) (Homo sapiens (Human), UniProt Q9BUB5); assay: MNK1 in vitro kinase assay (assay 2), Z'-LYTE; assay type: biochemical; settings: compound concentration of 1 μM, read-out: Mnk1 % Inh
Sequence (Q9BUB5 other isoform, or with tags, fused parts or gaps): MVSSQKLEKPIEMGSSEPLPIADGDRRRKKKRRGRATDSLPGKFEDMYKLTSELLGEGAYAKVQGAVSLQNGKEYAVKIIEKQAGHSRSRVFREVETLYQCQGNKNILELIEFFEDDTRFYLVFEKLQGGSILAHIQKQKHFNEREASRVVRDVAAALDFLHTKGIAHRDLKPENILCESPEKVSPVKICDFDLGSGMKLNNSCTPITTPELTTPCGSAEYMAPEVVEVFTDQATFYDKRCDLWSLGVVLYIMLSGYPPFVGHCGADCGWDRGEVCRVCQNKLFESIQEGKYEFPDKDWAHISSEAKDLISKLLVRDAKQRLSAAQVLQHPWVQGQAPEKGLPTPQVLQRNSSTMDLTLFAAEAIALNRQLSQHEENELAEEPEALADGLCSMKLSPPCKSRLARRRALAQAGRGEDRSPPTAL
inhibition at 1 µM values, listed per item
Write it as a number; the unit % goes unstated.

compound	inhibition at 1 µM, %
COc1c(N=S2(=O)CCC(O)CC2)cc2ncnc(Nc3ccc(F)cc3O[C@@H]3CO[C@@H]4CCO[C@@H]43)c2c1C (stereo partly drawn) [Example 2.04]	105
COc1c(N=S(C)(C)=O)cc2ncnc(Nc3ccc(F)cc3O[C@H](C)C(=O)N[C@@H](C)C(F)(F)F)c2c1C [Example 2.37]	88
COc1c(N=S2(=O)CCC2)cc2ncnc(Nc3ccc(F)cc3O[C@@H]3CO[C@@H]4CCO[C@@H]43)c2c1Cl [Example 2.59]	108

# input compound: COc1c(N=S2(=O)CCNCC2)cc2ncnc(Nc3ccc(F)cc3O[C@@H]3CO[C@@H]4CCO[C@@H]43)c2c1C [Example 2.30] ; wanted: its inhibition at 1 µM
105

Sample COc1c(N=S(C)(C)=O)cc2ncnc(Nc3cccnc3O[C@@H]3CO[C@@H]4CCO[C@@H]43)c2c1C [Example 2.49] — what was its inhibition at 1 µM?
95

Entry under review: COc1c(N=S2(=O)CCCC2)cc2ncnc(Nc3ccc(F)cc3O[C@@H]3CO[C@H]4[C@@H]3OC[C@H]4OC)c2c1Cl [Example 2.55] . Reported inhibition at 1 µM?
104

---

biological target: MNK2a (pre-activated GST-MNK2a) (Homo sapiens (Human), UniProt Q9HBH9); experiment: MNK2a in vitro kinase assay (assay 1), ADP-Glo; format: biochemical; details: read-out: Mnk2 IC50
Sequence (Q9HBH9 whole entry): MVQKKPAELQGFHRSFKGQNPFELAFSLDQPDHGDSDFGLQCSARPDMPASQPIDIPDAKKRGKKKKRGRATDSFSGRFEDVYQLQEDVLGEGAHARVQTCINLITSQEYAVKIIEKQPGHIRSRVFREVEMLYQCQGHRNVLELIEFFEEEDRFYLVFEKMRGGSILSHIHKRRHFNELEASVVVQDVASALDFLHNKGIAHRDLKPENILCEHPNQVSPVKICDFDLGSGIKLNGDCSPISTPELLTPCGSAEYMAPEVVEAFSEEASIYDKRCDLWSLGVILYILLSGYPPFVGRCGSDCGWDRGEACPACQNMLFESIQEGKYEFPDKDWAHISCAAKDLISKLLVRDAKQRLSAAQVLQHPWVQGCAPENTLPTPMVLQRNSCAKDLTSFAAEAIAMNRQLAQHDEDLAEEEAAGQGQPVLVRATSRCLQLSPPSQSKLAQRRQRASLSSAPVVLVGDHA
property: pIC50
Convention used: pIC50 is expressed as -log10 of the molar concentration.

For orientation, consider the following solved cases.
molecule	pIC50
COc1c(N=S2(=O)CCCC2)cc2ncnc(Nc3ccc(F)cc3O[C@@H]3CO[C@H]4[C@@H]3OC[C@H]4OC)c2c1Cl [Example 2.55]	8.80
COc1c(N=S(C)(C)=O)cc2ncnc(Nc3ccc(F)cc3O[C@@H]3CO[C@H]4[C@@H]3OC[C@H]4O)c2c1C [Example 2.13]	8.77
COc1c(N=S(C)(C)=O)cc2ncnc(Nc3ccc(F)cc3O[C@@H]3CO[C@H]4[C@@H]3OC[C@H]4OC)c2c1C [Example 2.45]	8.77
COc1c(N=S2(=O)CCCC2)cc2ncnc(Nc3ccc(F)cc3O[C@@H]3CO[C@H]4[C@@H]3OC[C@H]4OC)c2c1C [Example 2.36]	8.74
COc1c(N=S2(=O)CCCC2)cc2ncnc(Nc3ccc(Cl)cc3O[C@H](C)C(=O)NCC(F)(F)F)c2c1C [Example 2.56]	8.57

Let us examine a further case.
// pIC50 lookup, key: COc1c(N=S(C)(C)=O)cc2ncnc(Nc3ccc(F)cc3O[C@H](C)C(=O)N[C@@H](C)C(F)(F)F)c2c1C [Example 2.37]
8.39

Data provenance: patent US10167296B2
